B1: CPEB3 Ribozyme (parent)
chain: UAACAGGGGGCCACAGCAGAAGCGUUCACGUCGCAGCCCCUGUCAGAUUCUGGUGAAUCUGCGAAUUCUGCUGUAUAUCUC

- Variants of: B1
- test_method_notes: self-cleavage, relative activity (ratio to wild type); higher = more cleavage; in vitro, sequencing
For each record, write down the corresponding self-cleavage.
Answers are plain numbers.

A65G    0.52
U1G G53C    0.89
C23U C39U    0.24
A18G C44G    0.16
C40A U43C    0.14

Lab note: each variant below needs its self-cleavage filled in.
1. U60A U76A
2. U54C U60C
3. C32A U48G
4. A15U U48C
5. G55A U67A

1. 0.61
2. 0.39
3. 0.24
4. 0.33
5. 0.28

Lab note: each variant below needs its self-cleavage filled in.
1. U48A A57U
2. A45U A56C
3. A35G G42C
4. A28C C71U
5. U1G A56G
6. U69G U74G
7. C37U A64U

[1.09, 0.28, 0.16, 0.41, 0.92, 0.97, 0.27]

Lab note: each variant below needs its self-cleavage filled in.
1. A28G A35G
2. A20G U60A

1: 1.18; 2: 0.35

Lab note: each variant below needs its self-cleavage filled in.
1. C4A A20G
2. A18C A47G
3. A77C U80A

[1.11, 0.26, 1.05]

Lab note: each variant below needs its self-cleavage filled in.
1. C17U A65U
2. A28G C81A

[0.55, 1]

Lab note: each variant below needs its self-cleavage filled in.
1. C38U U74A
2. U41C U54C
3. C17G A65U
4. A3G U48C

[1.1, 1.03, 0.19, 0.61]

Lab note: each variant below needs its self-cleavage filled in.
1. A56U U60A
2. G36U U69C
3. A28C U67C
4. G33U
5. C29G U78C
6. C29U C39G
7. A3G C29G
8. A3G C14U

[0.3, 0.15, 0.22, 0.24, 0.21, 0.22, 0.43, 1.12]

Lab note: each variant below needs its self-cleavage filled in.
1. A18G A21G
2. A28G U54A
3. U41G U78G
4. C34A U69A

[0.4, 0.6, 0.2, 0.07]
